These data points were gathered from PubChem BioAssay (NCATS).

Assay: qHTS of pediatric cancer cell lines to identify multiple opportunities for drug repurposing: Confirmatory screen for RD cells (AID 1347124);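 also: cells exposed to compound for 48 h before viability readout; nearly all actives have a fitted effect of over 65% in size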
Settings: RD rhabdomyosarcoma cell viability; series mostly up to 45.9 µM
Records with an inconclusive call do not appear. Active and inactive are the calls of the source. Calls follow the shape of the dose curve; as a rule, active = well fitted cell-killing curve with a large enough effect; inconclusive = small, poorly fitted or top-dose-only effect, or effect the other way; inactive = no such curve, though single readings can be large or run the other way.
Outcome (select one): 1 = active, -1 = inactive

Exam item: Which outcome did this test record for the compound "Oc1ccc(-c2nc(-c3ccc(F)cc3)c(-c3ccncc3)[nH]2)cc1" ?
Marked response: -1

Exam item: Which outcome did this test record for the compound "CCN(CC)C(=S)SSC(=S)N(CC)CC" ?
Marked response: 1

Exam item: Which outcome did this test record for the compound CCN(CCO)CCCC(C)Nc1ccnc2cc(Cl)ccc12 (stereo unspecified) ?
Marked response: -1

Exam item: Which outcome did this test record for the compound O=C1c2c(O)cc(O)cc2OC(c2ccc(O)c(O)c2)C1O (stereo unspecified) ?
Marked response: -1

Exam item: Which outcome did this test record for the compound "CCOc1cc(CC(=O)N[C@@H](CC(C)C)c2ccccc2N2CCCCC2)ccc1C(=O)O" ?
Marked response: -1

Exam item: Which outcome did this test record for the compound "CS(=O)(=O)OCCCCOS(C)(=O)=O" ?
Marked response: -1

* * *

System: TAB113
Assay: qHTS profiling for inhibitors of Plasmodium falciparum proliferation (AID 504749); also: nearly all actives have a fitted effect of over 60% in size
Settings: P. falciparum in erythrocytes, SYBR Green DNA, 72 h; series mostly up to 28.7 µM
Records with an inconclusive call do not appear. Active and inactive are the calls of the source. Calls follow the shape of the dose curve; as a rule, active = well fitted inhibition curve with a large enough effect; inconclusive = small, poorly fitted or top-dose-only effect; inactive = flat fitted curve, though single readings scatter.
Outcome (select one): t = active, f = inactive

Here are 5 compounds together with their reported answers.
compound | class assignment
O=C(O)CCNC(=O)c1ccc(N=Nc2ccc(O)c(C(=O)O)c2)cc1 | f
CNC[C@@H](O)[C@@H](O)[C@H](O)[C@H](O)CO | f
COc1ccc(C2(C#N)CCC(C(=O)O)CC2)cc1OC1CCCC1 (stereo not given) | f
Clc1ccc(C(Cn2ccnc2)OCc2ccsc2Cl)c(Cl)c1 (stereo not given) | t
O=C(NC(Cc1cc(=O)[nH]c2ccccc12)C(=O)O)c1ccc(Cl)cc1 (stereo not given) | f

Exam item: Which outcome did this test record for the compound "Oc1ccc(OCc2ccccc2)cc1" ?
Marked response: f

Exam item: Which outcome did this test record for the compound "Cc1cccc(C)c1OCC(=O)N[C@@H](Cc1ccccc1)[C@@H](O)C[C@H](Cc1ccccc1)NC(=O)[C@H](C(C)C)N1CCCNC1=O" ?
Marked response: t

Exam item: Which outcome did this test record for the compound "CCC[C@@H]1C[C@@H](C(=O)N[C@@H]([C@H]2O[C@H](SC)[C@H](O)[C@@H](O)[C@H]2O)[C@@H](C)O)N(C)C1" ?
Marked response: f

Exam item: Which outcome did this test record for the compound "O=C(O)c1cccnc1Nc1cccc(C(F)(F)F)c1" ?
Marked response: f

Exam item: Which outcome did this test record for the compound "Nc1ccc(S(N)(=O)=O)cc1" ?
Marked response: f

* * *

Test system: CP269
Assay: qHTS profiling for inhibitors of Plasmodium falciparum proliferation (AID 504749); also: nearly all actives have a fitted effect of over 60% in size
Conditions: P. falciparum in erythrocytes, SYBR Green DNA, 72 h; series mostly up to 28.7 µM
Results filed as inconclusive are left out. Activity calls are given as the source filed them. Calls come from the whole dose curve; as a rule, active = well fitted inhibition curve with a large enough effect; inconclusive = small, poorly fitted or top-dose-only effect; inactive = flat fitted curve, though single readings scatter.
Outcome (select one): yes = active, no = inactive

Here are 5 compounds together with their reported answers.
compound | class assignment
Clc1ccc(C(Cn2ccnc2)OCc2ccsc2Cl)c(Cl)c1 (centres undefined) | yes
C[Se]CCC(N)C(=O)O (centres undefined) | no
COc1ccc2cc([C@H](C)C(=O)O)ccc2c1 | no
CC1(C)CCC(C)(C)c2cc(NC(=O)c3ccc(C(=O)O)cc3)ccc21 | no
CCCOc1ccc2nc(NC(=O)OC)[nH]c2c1 | no

Exam item: Which outcome did this test record for the compound "Cc1cc(C2CCCCC2)n(O)c(=O)c1" ?
Marked response: yes

Exam item: Which outcome did this test record for the compound "O=C(O)CCNC(=O)c1ccc(N=Nc2ccc(O)c(C(=O)O)c2)cc1" ?
Marked response: no

Exam item: Which outcome did this test record for the compound O=C(NC(Cc1cc(=O)[nH]c2ccccc12)C(=O)O)c1ccc(Cl)cc1 (centres undefined) ?
Marked response: no

Exam item: Which outcome did this test record for the compound O=C(CS(=O)Cc1ccco1)NCC=CCOc1cc(CN2CCCCC2)ccn1 (centres undefined) ?
Marked response: no

Exam item: Which outcome did this test record for the compound COC(=O)C1=C(C)NC(C)=C(C(=O)OCCCN2CCC(c3ccccc3)(c3ccccc3)CC2)C1c1cccc([N+](=O)[O-])c1 (centres undefined) ?
Marked response: yes

Exam item: Which outcome did this test record for the compound "CCCCCCCCCCCCCCCCCCCCCCO" ?
Marked response: no

Exam item: Which outcome did this test record for the compound COc1ccc(C2(C#N)CCC(C(=O)O)CC2)cc1OC1CCCC1 (centres undefined) ?
Marked response: no

Exam item: Which outcome did this test record for the compound "CCCc1cc(=O)[nH]c(=S)[nH]1" ?
Marked response: no

Exam item: Which outcome did this test record for the compound CC(S)C(=O)NCC(=O)O (centres undefined) ?
Marked response: no

Exam item: Which outcome did this test record for the compound "CC(C)(S)[C@@H](N)C(=O)O" ?
Marked response: no
